Cited source for all entries: PubChem BioAssay

Reported composite z-score is given for each of the following compounds.
- Target system: Albumin (Bos taurus) (UniProt P02769)
- Sequence (P02769 whole entry, looked up): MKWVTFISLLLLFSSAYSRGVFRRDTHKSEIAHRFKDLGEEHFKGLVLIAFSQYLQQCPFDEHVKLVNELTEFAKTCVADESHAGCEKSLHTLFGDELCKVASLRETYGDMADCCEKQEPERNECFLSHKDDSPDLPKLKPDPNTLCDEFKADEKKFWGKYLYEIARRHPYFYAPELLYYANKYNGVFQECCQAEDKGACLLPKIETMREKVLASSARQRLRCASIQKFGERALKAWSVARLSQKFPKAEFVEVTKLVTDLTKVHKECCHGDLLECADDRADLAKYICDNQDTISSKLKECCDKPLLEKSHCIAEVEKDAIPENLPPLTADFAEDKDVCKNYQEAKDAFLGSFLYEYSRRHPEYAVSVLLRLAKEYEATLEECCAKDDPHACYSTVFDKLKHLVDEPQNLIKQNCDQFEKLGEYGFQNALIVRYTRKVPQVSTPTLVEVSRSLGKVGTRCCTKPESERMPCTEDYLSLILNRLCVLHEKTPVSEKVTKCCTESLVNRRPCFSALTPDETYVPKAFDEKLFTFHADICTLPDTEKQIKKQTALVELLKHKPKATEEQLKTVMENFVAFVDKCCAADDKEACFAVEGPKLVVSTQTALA
- Assay summary: bovine serum albumin binders on microarray, profiling panel, artefact control for SMM control protein annotation, biochemical, small-molecule microarray, Alexa647 label, 635/667 nm fluorescence (AID 1118);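 note: score merges 667 nm emission intensity and signal-to-noise per printed compound spot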
- Run conditions: BSA-A647 binding, fluorescence 635 nm, higher = more signal
Simply state the number, no unit and no words.

{"Compound": "CC(C)CON=C1C[C@@H](O)[C@@H](O)[C@@H]2[C@@H]3C(=O)N([C@@H](C)c4ccccc4)C(=O)[C@@H]3CC[C@@H]12", "composite z-score": 0.538}
{"Compound": "COC(=O)C(C(=O)OC)C1CCCC(=O)C1 (stereo not drawn)", "composite z-score": -0.0912}
{"Compound": "O=C1C=C[C@@H](O)[C@@H]2[C@@H]3C(=O)N(Cc4ccc5c(c4)OCO5)C(=O)[C@@H]3CC[C@@H]12", "composite z-score": 0.147}
{"Compound": "CO[C@H]1COC(=O)[C@H](C)COC(=O)[C@H](C)NC(=O)CC=C[C@H]1C", "composite z-score": -0.642}
{"Compound": "COCCNC(=O)OCC1CCCC2(CC(OC(=O)NCc3cccc4ccccc34)CC(CCC(=O)N[C@@H](C)C(=O)OC)O2)O1 (stereo partly drawn)", "composite z-score": 0.0307}
{"Compound": "CO[C@@H](C1CCCCC1)[C@@H](C)[C@H](OCc1cccc(Br)c1)[C@@H](C)CO", "composite z-score": -0.0658}
{"Compound": "COC(OC)[C@@H](C)[C@H](OC)[C@@H](C)[C@H](OC)c1ccccc1", "composite z-score": -0.355}

Here is the next item to consider.
composite z-score recorded for this compound, CO[C@@H]1C=CCC(=O)N[C@@H](C)C(=O)OC[C@@H](OC)[C@H](C)C=CCC(=O)OC[C@H]1C , is -1.01

---

- Assay summary: CREB reporter modulators under forskolin, primary screen, cell-based, PC12, CRE-LacZ reporter, forskolin-stimulated (AID 1146);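 note: PC12 cells with 6xCRE LacZ reporter stimulated by forskolin 10 µM; beta-galactosidase reporter signal reflecting CREB driven transcription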
- Run conditions: luminescence, 4.5 h, higher = more signal, called active from +8 up or from −8 down
Property label: z-score
// response body must contain only the number

{"Test smiles": "O=C1[C@H]2[C@H]3[C@H](O)[C@H](O)CC(=NO[C@@H]4O[C@H](CO)[C@@H](O)[C@H](O)[C@H]4O)[C@H]3CC[C@H]2C(=O)N1C[C@@H]1CCCO1", "Val": -0.105}
{"Test smiles": "O=C1[C@H]2[C@H]3[C@H](O)[C@H](O)CC(=NO[C@@H]4O[C@H](CO)[C@@H](O)[C@H](O)[C@H]4O)[C@H]3CC[C@H]2C(=O)N1c1ccc(F)cc1F", "Val": -0.0522}

Now for a further compound.
// field: z-score; key: CO[C@H]1C[C@@H]2C[C@H](O)CC(CC(=O)O[C@@H](C=CCC(C)C)C[C@@H]3CC[C@H](C)[C@@H](C1)O3)O2 ; value = 0.405

---

- Target system: NADPH oxidase 2 (Homo sapiens)
- Assay summary: NOX2-dependent H2O2 signal modulators, primary screen, NOX inhibitor project, cell-based, HEK293-NOX2, PMA-stimulated, Amplex Red fluorescence (AID 1159); note: test concentration not given here
- Run conditions: 45 min, higher = more signal, called active from +8 up or from −8 down
Property label: z-score
// no unit string in output, number only

Some entries whose results are on file:
{"Compound": "COC(=O)[C@H](C)NC(=O)CCC1CC(OC(=O)NCc2ccc3c(c2)OCO3)CC2(CCCC(COC(=O)NCc3ccccc3)O2)O1 (stereo partly specified)", "Val": 0.154}
{"Compound": "CCN1C(=O)[C@H]2[C@H]3[C@H](O)[C@H](O)CC(=NO[C@@H]4O[C@H](CO)[C@@H](O)[C@H](O)[C@H]4O)[C@H]3CC[C@H]2C1=O", "Val": 1.4}
{"Compound": "C=CC[C@@H]1C=C[C@H](ON=C2C[C@@H](O)[C@@H](O)[C@@H]3[C@@H]4C(=O)N(CC)C(=O)[C@@H]4CC[C@@H]23)[C@@H](CO)O1", "Val": -0.284}

Please turn your attention to the following entry.
Entry Cc1cc(C)c(-c2cc([C@H](C)ON=C[C@@H](C)[C@H](OCc3ccccc3)C(C)C)on2)c(C)c1 ; z-score = -0.467
